Collected logP values appear next to each entry.
Form rule: numeric answer, no unit written next to it.

| LINE NOTATION | logP |
| --- | --- |
| Nc1ccc(S(=O)(=O)Nc2ccccc2)cc1 | 1.55 |

Turning now to a further compound:
For the compound `Nc1ccc(S(=O)(=O)Nc2ccc(S(N)(=O)=O)cc2)cc1` , report logP.
0.35

* * *

Collected logP values appear next to each entry.

| LINE NOTATION | logP |
| --- | --- |
| CC(=O)c1ccccc1 | 1.71 |

Turning now to a further compound:
For the compound `N#CCc1ccccc1` , report logP.
1.47

* * *

Collected logP values appear next to each entry.
- ASSAY OVERVIEW: method code SF-AS, from DOI: 10.1016/0378-5173(80)90061-7
Form rule: numeric answer, no unit written next to it.

| LINE NOTATION | READOUT VALUE |
| --- | --- |
| O=C1CCCO1 | -0.31 |

Turning now to a further molecule:
For the molecule `COC(=O)CCCO` , report logP.
-0.06

* * *

- ASSAY OVERVIEW: method code SF, from Dai, J-Y.; Han, S.; Wang, L. (2000). Prediction of partition properties of substituted benzaldehydes using different structural parameters. Zhongguo Huanjing Kexue (China Environmental Science), …
Collected logP values appear next to each entry.
Form rule: numeric answer, no unit written next to it.

| LINE NOTATION | logP |
| --- | --- |
| O=Cc1ccc(Cl)c(Cl)c1 | 2.53 |

Turning now to a further molecule:
For the molecule `Cc1ccc(C)c(C=O)c1` , report logP.
1.91

* * *

- ASSAY OVERVIEW: method code SF, from DOI: 10.1021/jm5017544, PMID: 25671691
- STATED CONDITIONS: pH 7.4
OUTCOME MEASURE: logD
Form rule: numeric answer, no unit written next to it.

For the compound `Nc1ccc(-c2ccc3ccccc3n2)cc1` , report logD.
1.85

* * *

OUTCOME MEASURE: logP
Form rule: numeric answer, no unit written next to it.

For the molecule `CC(C)(Oc1ccccc1)C(=O)N[C@@H]1C(=O)N2[C@@H]1SC(C)(C)[C@@H]2C(=O)O` , report logP.
2.76

* * *

- ASSAY OVERVIEW: method code SF-AS, from PMID: 3699148
- STATED CONDITIONS: pH 7.4
Collected logD values appear next to each entry.
Form rule: numeric answer, no unit written next to it.

Field: example entries. Status: answers known.
| COMPOUND | OUTCOME MEASURE | READOUT VALUE |
| --- | --- | --- |
| CCCCOCCNc1ccccc1C(N)=O | logD | 2.27 |
| Cc1ccccc1OCCNc1ccccc1C(N)=O | logD | 2.94 |
| CCCCOCCNc1ccc(Cl)cc1C(N)=O | logD | 2.99 |
| CC(O)CNc1ccccc1C(N)=O (stereo unspecified) | logD | 0.62 |

For the compound `NC(=O)c1ccccc1NCCCO` , report logD.
0.7

For the compound NC(=O)c1ccccc1NCC(O)CO (stereo unspecified) , report logD.
-0.8

* * *

- ASSAY OVERVIEW: method code SF-AS, from Dallet, P.; Dubost, J.; Colleter, J.; Audry, E.; Creuzet, M. (1985). QSAR in a series of alpha-adrenolitic molecules: optimization of physicochemical parameters. Eur J Med Chem, 20(6)551-557.
Please use MET whenever logP is not below 3, and NOT MET whenever it is.

Worked cases, answers included:
| COMPOUND | CLASS |
| --- | --- |
| CNCCOc1cc(C)c(O)cc1C(C)C | NOT MET |
| CC(=O)Oc1cc(C(C)C)c(OCCN(C)C)cc1C | MET |
| COc1cccc(OC)c1OCCN(C)CCOc1cc(C)c(O)cc1C(C)C | MET |
| Cc1cc(OCCN(C)C)c(C(C)C)cc1OC1CCCCC1=O (stereo unspecified) | MET |

Next, consider the following compound.
Decide: is the reported value of logP for `Cc1ccc(C(C)C)c(OCCN(C)C)c1` equal to or greater than 3?
MET
